Target: T1, Human Tau 2N4R, wild type, recombinant full length (human, UniProt P10636 2-758)
T1 construct: Full length 2N4R isoform; monomer in SPR and ELISA; heparin-induced aggregates or seeds in the functional assays; also called Tau441; Tau-441
T1 sequence (P10636 other isoform, or with tags, fused parts or gaps limits assumed): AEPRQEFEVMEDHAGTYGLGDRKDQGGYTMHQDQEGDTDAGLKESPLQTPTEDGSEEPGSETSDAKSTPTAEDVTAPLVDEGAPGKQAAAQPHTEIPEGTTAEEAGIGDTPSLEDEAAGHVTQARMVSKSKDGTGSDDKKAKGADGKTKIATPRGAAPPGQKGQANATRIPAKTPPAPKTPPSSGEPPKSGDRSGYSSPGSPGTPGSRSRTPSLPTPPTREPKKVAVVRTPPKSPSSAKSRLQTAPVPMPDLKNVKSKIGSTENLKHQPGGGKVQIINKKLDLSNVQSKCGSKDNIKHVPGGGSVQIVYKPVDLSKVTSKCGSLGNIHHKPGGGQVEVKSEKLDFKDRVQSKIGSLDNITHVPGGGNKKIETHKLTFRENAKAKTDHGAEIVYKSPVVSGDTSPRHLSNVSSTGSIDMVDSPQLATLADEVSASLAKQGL
Assay: SPR BIAcore, mAb captured by anti-human IgG, Tau flowed, 1:1 Langmuir
Protocol: All experiments were performed using a BIAcore™ T-100 instrument (GE Healthcare). […] Binding of humanized and mouse antibodies were analyzed by surface plasmon resonance (BIAcore™) to determine their relative association rates (kₐ), dissociation rates (kd), and equilibrium binding constants (KD). […] The binding constants kₐ, kd, and KD were determined using a 1:1 Langmuir fitting model.
Measurement kind: kon (M⁻¹ s⁻¹)
Report the value in M⁻¹ s⁻¹ with no unit label.

7G6-HCzu4-LCzu1 (antibody, human IgG1, kappa, V domains shown, humanized, human IgG1 kappa) VH: QVQLVQSGAEVKKPGASVKVSCKASGYTFTTYWITWVRQAPGQGLEWMGDIYPGSSICNYAQKFQGRVTMTVDTSTSTAYMELSSLRSEDTAVYYCAREDGYDAWFAYWGQGTLVTVSS VL: DVVMTQSPLSLPVTLGQPASISCRSSQSILHSNGNTYLEWFQQRPGQSPRRLIYKVSNRFSGVPDRFSGSGSGTDFTLKISRVEAEDVGVYYCFQGSHVPFTFGQGTKLEIKR: 3.57e+06
7G6-HCzu5-LCzu22 (antibody, human IgG1, kappa, V domains shown, humanized, human IgG1 kappa; also called 7G6-LCzu22) VH: QVQLVQSGAEVKKPGASVKVSCKASGYTFTTYWITWVRQAPGQGLEWMGDIYPGSSISNYNEKFKSRVTMTVDTSTSTAYMELSSLRSEDTAVYYCAREDGYDAWFAYWGQGTLVTVSS VL: DVVMTQSPLSLPVTLGQPASISCRSSQSILHSNGNTYLEWYQQRPGQSPRRLISKVSNRFSGVPDRFSGSGSGTDFTLKISRVEAEDVGVYYCFQGSHVPFTFGQGTKLEIKR: 1.88e+06
7G6-HCzu3-LCzu2 (antibody, human IgG1, kappa, V domains shown, humanized, human IgG1 kappa) VH: QVQLVQSGAEVKKPGASVKVSCKASGYTFTTYWITWVRQAPGQGLEWMGDIYPGSSICNYNEKFKSRVTMTVDTSTSTAYMELSSLRSEDTAVYYCAREDGYDAWFAYWGQGTLVTVSS VL: DVVMTQSPLSLPVTLGQPASISCRSSQSILHSNGNTYLEWYQQRPGQSPRLLICKVSNRFSGVPDRFSGSGSGTDFTLKISRVEAEDVGVYYCFQGSHVPFTFGQGTKLEIKR: 2e+06
7G6-HCzu5-LCzu7 (antibody, human IgG1, kappa, V domains shown, humanized, human IgG1 kappa) VH: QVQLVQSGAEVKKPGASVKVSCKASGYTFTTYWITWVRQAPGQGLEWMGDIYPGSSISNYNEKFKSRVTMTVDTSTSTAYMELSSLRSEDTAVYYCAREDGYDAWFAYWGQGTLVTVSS VL: DVVMTQSPLSLPVTLGQPASISCRSSQSILHSNGNTYLEWFQQRPGQSPRRLISKVSNRFSGVPDRFSGSGSGTDFTLKISRVEAEDVGVYYCFQGSHVPFTFGQGTKLEIKR: 3.14e+06
7G6-HCzu9-LCzu6 (antibody, human IgG1, kappa, V domains shown, humanized, human IgG1 kappa) VH: QVQLVQSGAEVKKPGASVKVSCKASGYTFTTYWITWVRQAPGQGLEWMGDIYPGSSICNYAQKFQGRVTMTVDTSTSTVYMELSSLRSEDTAVYYCAREDGYDAWFAYWGQGTLVTVSS VL: DVVMTQSPLSLPVTLGQPASISCRSSQSILHSNGNTYLEWYQQRPGQSPRLLISKVSNRFSGVPDRFSGSGSGTDFTLKISRVEAEDVGVYYCFQGSHVPFTFGQGTKLEIKR: 2.06e+06
7G6-HCzu2-LCzu2 (antibody, human IgG1, kappa, V domains shown, humanized, human IgG1 kappa) VH: QVQLVQSGAEVKKPGASVKVSCKASGYTFTTYWITWVRQAPGQGLEWMGDIYPGSSICNYNEKFKSRVTMTVDTSTSTVYMELSSLRSEDTAVYYCAREDGYDAWFAYWGQGTLVTVSS VL: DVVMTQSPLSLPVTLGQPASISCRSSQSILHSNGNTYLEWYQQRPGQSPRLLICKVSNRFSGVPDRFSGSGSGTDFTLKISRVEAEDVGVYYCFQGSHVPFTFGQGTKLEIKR: 2.12e+06
7G6-HCzu3-LCzu1 (antibody, human IgG1, kappa, V domains shown, humanized, human IgG1 kappa) VH: QVQLVQSGAEVKKPGASVKVSCKASGYTFTTYWITWVRQAPGQGLEWMGDIYPGSSICNYNEKFKSRVTMTVDTSTSTAYMELSSLRSEDTAVYYCAREDGYDAWFAYWGQGTLVTVSS VL: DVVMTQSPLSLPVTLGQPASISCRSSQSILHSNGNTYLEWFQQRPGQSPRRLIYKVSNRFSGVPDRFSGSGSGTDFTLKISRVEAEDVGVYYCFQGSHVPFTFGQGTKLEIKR: 2.77e+06
7G6-HCzu4-LCzu2 (antibody, human IgG1, kappa, V domains shown, humanized, human IgG1 kappa) VH: QVQLVQSGAEVKKPGASVKVSCKASGYTFTTYWITWVRQAPGQGLEWMGDIYPGSSICNYAQKFQGRVTMTVDTSTSTAYMELSSLRSEDTAVYYCAREDGYDAWFAYWGQGTLVTVSS VL: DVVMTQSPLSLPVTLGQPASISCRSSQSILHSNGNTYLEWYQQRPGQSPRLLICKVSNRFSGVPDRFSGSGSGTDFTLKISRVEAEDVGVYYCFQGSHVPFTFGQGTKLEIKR: 2e+06

Return kon for the following binder: 7G6-HCzu1-LCzu1 (antibody, human IgG1, kappa, V domains shown, humanized, human IgG1 kappa) VH: QVQLVQSGAEVKKPGASVKVSCKASGYTFTTYWITWVRQAPGQGLEWMGDIYPGSSICNYNEKFKSRVTMTRDTSTSTVYMELSSLRSEDTAVYYCAREDGYDAWFAYWGQGTLVTVSS VL: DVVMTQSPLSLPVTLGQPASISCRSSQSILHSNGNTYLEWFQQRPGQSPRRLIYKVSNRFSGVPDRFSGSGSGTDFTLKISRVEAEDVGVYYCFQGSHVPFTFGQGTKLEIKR
2.57e+06

Return kon for the following binder: 7G6-HCzu5-LCzu2 (antibody, human IgG1, kappa, V domains shown, humanized, human IgG1 kappa) VH: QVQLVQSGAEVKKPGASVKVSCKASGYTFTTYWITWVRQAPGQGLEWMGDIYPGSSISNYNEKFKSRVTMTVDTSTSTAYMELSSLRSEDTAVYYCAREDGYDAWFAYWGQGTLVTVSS VL: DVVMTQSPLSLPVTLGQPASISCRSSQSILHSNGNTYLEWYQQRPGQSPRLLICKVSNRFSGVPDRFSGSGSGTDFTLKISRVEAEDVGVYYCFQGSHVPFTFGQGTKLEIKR
1.86e+06
